Target system: Carbonic anhydrase 2 (Homo sapiens) (UniProt P00918)
Assay summary: Activation of […] human carbonic anhydrase-2 incubated for 15 mins prior to testing by stopped-flow CO2 hydrase assay
KA less than 2 µM is MET; KA greater than or equal to 2 µM is NOT MET.

1) COC(=O)[C@H](Cc1nc[nH]c1I)NC(=O)OC(C)(C)C ... MET
2) COC(=O)[C@@H](N)Cc1nc(Br)[nH]c1Br ... MET
3) COC(=O)[C@H](Cc1nc(I)[nH]c1I)NC(=O)CCN ... NOT MET
4) COC(=O)[C@H](Cc1nc(Br)[nH]c1Br)NC(=O)CCN ... NOT MET
5) NCCc1nc[nH]c1Br ... MET
6) CC(C)(C)OC(=O)NCCc1nc[nH]c1Cl ... NOT MET
7) COC(=O)[C@H](Cc1nc[nH]c1Cl)NC(=O)OC(C)(C)C ... NOT MET
8) COC(=O)[C@H](Cc1nc(I)[nH]c1I)NC(=O)OC(C)(C)C ... MET
9) NCCc1nc[nH]c1I ... MET
10) COC(=O)[C@H](Cc1nc(Cl)[nH]c1Cl)NC(=O)CCNC(=O)OC(C)(C)C ... NOT MET
11) COC(=O)[C@@H](N)Cc1nc[nH]c1Br ... NOT MET
12) CC(C)(C)OC(=O)NCCc1nc(I)[nH]c1I ... NOT MET
13) COC(=O)[C@H](Cc1nc[nH]c1I)NC(=O)CCN ... MET
14) CC(C)(C)OC(=O)NCCc1nc[nH]c1I ... NOT MET
15) COC(=O)[C@H](Cc1nc(Br)[nH]c1Br)NC(=O)CCNC(=O)OC(C)(C)C ... NOT MET
16) COC(=O)[C@H](Cc1nc(I)[nH]c1I)NC(=O)CCNC(=O)OC(C)(C)C ... NOT MET
17) COC(=O)[C@H](Cc1nc(Cl)[nH]c1Cl)NC(=O)CCN ... NOT MET
18) COC(=O)[C@H](Cc1nc[nH]c1Br)NC(=O)CCN ... MET
19) NCCc1nc(Cl)[nH]c1Cl ... MET
20) COC(=O)[C@H](Cc1nc[nH]c1Cl)NC(=O)CCNC(=O)OC(C)(C)C ... NOT MET
21) COC(=O)[C@H](Cc1c[nH]cn1)NC(=O)CCN ... NOT MET
22) CC(C)(C)OC(=O)NCCc1nc(Cl)[nH]c1Cl ... NOT MET
23) COC(=O)[C@H](Cc1nc(Br)[nH]c1Br)NC(=O)OC(C)(C)C ... MET
24) COC(=O)[C@H](Cc1nc[nH]c1I)NC(=O)CCNC(=O)OC(C)(C)C ... NOT MET
25) COC(=O)[C@@H](N)Cc1nc(I)[nH]c1I ... MET
26) COC(=O)[C@H](Cc1nc(Cl)[nH]c1Cl)NC(=O)OC(C)(C)C ... NOT MET
27) NCCc1nc(I)[nH]c1I ... MET
28) COC(=O)[C@H](Cc1nc[nH]c1Br)NC(=O)CCNC(=O)OC(C)(C)C ... MET
29) COC(=O)[C@@H](N)Cc1nc[nH]c1Cl ... NOT MET
30) COC(=O)[C@H](Cc1nc[nH]c1Br)NC(=O)OC(C)(C)C ... NOT MET
31) NCCc1nc(Br)[nH]c1Br ... MET
32) CC(C)(C)OC(=O)NCCc1nc[nH]c1Br ... NOT MET
33) COC(=O)[C@@H](N)Cc1c[nH]cn1 ... NOT MET
34) NCCc1nc[nH]c1Cl ... MET
35) COC(=O)[C@@H](N)Cc1nc(Cl)[nH]c1Cl ... NOT MET
36) COC(=O)[C@H](Cc1nc[nH]c1Cl)NC(=O)CCN ... NOT MET
37) CC(C)(C)OC(=O)NCCc1nc(Br)[nH]c1Br ... NOT MET
38) COC(=O)[C@@H](N)Cc1nc[nH]c1I ... MET
